Where these numbers come from: the Deep4Chem optical property database

Experiment: solvent given as SMILES
Conditions: in ClC(Cl)Cl

compound	emission maximum / nm
CCCCCCCCN1c2ccccc2Sc2cc(/C=C/c3ccc(N(c4ccc(/C=C/c5ccc6c(c5)Sc5ccccc5N6CCCCCCCC)cc4)c4ccc(/C=C/c5ccc(/C=C/c6ccc(N(c7ccc(/C=C/c8ccc9c(c8)Sc8ccccc8N9CCCCCCCC)cc7)c7ccc(/C=C/c8ccc9c(c8)Sc8ccccc8N9CCCCCCCC)cc7)cc6)c6nsnc56)cc4)cc3)ccc21	663
CCCCc1ccc(-n2c3c4ccc(C(F)(F)F)cc4nc(-c4ccc(C#N)cc4)c3c3c2c2c(-c4ccc(C#N)cc4)nc4cc(C(F)(F)F)ccc4c2n3-c2ccc(CCCC)cc2)cc1	499
Cc1cc(C(F)(F)F)nc2c1ccc1nc(-c3ccc(Cl)cc3)cn12	452
Cc1ccc(NC(=O)c2sc(Br)nc2C)cc1	412.4
COc1ccc(OC)c(C=O)c1	427
COc1ccc(N2C(=O)c3ccccc3NC2C(C)(C)C)cc1 (centres undefined)	410
CC1=CC(C)=[N+]2C1=C(c1ccc(I)cc1)c1c(C)cc(C)n1[B-]2(OC(C)C)OC(C)C	517.73
COc1cc(-c2cc(-c3ccccc3)c(-c3ccccc3)c(-c3ccccc3)c2-c2ccccc2)c(OC)cc1-c1ccc(N(C)C)cc1	396
COC(=O)C(Cc1ccc2oc(-c3ccc(N(c4ccccc4)c4ccccc4)cc3)nc2c1)NC(=O)OC(C)(C)C (centres undefined)	445
N#CC1=CC=CC(C#N)=P1(c1ccccc1)c1ccccc1	491
CC(C)(C)c1ccc2c(c1)c1cc(C(C)(C)C)ccc1n2-c1ccccc1-c1nc(-c2ccccc2P(=O)(c2ccccc2)c2ccccc2)nc(-c2ccccc2P(=O)(c2ccccc2)c2ccccc2)n1	511.13
CCC1=C(C)C(=O)n2c1cc1c(C)c(CCC(=O)OC)c(C)n1c2=O	495
CCCN1c2ccccc2Sc2cc(/C=C\c3cc(=O)oc4ccc(C)cc34)ccc21	637
O=C1Cc2ccc(cc2)CC(=O)Cc2ccc(c3nsnc23)C1	488
